Collected protein stability index values appear next to each entry.
B1: LYSMD4 (parent)
chain: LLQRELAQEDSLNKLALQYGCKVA

# Variants of: B1
# test_protocol: protein stability index of a GFP-peptide fusion (GPS, HEK-293T) (PSI 1-6); higher = more stable;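 note: lentivirally expressed fusions sorted by FACS into six bins by GFP to DsRed ratio, PSI derived from sequencing read proportions per bin multiplied by bin number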
# particulars: c terminus: a fixed tail appended

| mutant_id | protein stability index |
| --- | --- |
| L15I | 2.11 |
| Q8K | 1.66 |
| G20H | 3.73 |
| G20K | 1.62 |
| A7F | 2.73 |
| V23W | 2.34 |
| S11P | 1.48 |
| L6G | 1.95 |
| L6A | 2.06 |
| G20P | 2.66 |
| G20E | 1.7 |
| L2S | 2.06 |
| Y19V | 2.02 |
| A16R | 1.9 |
| A16N | 1.98 |
| V23C | 1.83 |
| R4A | 1.64 |
